Provenance of the data: ChEMBL document CHEMBL1772962

- TARGET_OR_TEST_SYSTEM: Tyrosine-protein kinase JAK2 (Homo sapiens, UniProt O60674)
- Sequence (O60674 whole entry): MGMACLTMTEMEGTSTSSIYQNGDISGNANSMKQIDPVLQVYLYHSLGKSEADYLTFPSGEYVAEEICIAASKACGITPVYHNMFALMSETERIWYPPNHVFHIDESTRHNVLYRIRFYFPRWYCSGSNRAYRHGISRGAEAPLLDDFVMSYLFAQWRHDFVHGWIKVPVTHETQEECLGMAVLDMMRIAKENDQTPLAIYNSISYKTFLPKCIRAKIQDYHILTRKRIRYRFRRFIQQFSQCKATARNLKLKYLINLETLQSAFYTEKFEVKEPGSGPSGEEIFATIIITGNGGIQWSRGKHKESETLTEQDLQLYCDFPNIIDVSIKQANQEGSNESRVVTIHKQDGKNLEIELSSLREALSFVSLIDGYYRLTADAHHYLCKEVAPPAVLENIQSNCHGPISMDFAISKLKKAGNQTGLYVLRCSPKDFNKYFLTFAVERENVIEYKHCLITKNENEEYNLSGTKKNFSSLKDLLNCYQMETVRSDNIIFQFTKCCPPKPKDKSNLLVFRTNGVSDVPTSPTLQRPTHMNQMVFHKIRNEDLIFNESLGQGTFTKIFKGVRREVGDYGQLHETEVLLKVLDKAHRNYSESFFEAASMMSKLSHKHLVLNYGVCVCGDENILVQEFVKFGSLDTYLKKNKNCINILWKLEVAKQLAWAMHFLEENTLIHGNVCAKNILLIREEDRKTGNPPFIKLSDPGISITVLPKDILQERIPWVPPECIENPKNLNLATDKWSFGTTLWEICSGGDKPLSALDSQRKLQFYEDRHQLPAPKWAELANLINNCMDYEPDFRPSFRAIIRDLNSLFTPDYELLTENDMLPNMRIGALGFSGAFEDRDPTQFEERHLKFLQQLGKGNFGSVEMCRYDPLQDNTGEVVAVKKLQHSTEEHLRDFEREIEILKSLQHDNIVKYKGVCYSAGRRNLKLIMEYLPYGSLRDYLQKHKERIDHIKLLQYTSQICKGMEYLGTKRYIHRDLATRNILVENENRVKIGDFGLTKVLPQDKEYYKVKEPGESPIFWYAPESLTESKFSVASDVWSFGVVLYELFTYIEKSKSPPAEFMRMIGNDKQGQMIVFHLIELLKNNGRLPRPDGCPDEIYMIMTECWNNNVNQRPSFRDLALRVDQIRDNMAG
- TEST_PROTOCOL: Inhibition of JAK2 after 60 min
Entries and their pIC50 values follow.
Scale for pIC50: -log10 of concentration given in mol/L; no unit attached.

QUERY_SMILES	TARGET_OR_TEST_SYSTEM	pIC50
CC(C)Oc1cc(Nc2nc(N[C@@H](C)c3ccc(F)cc3)c(C#N)cc2F)n[nH]1	Tyrosine-protein kinase JAK2 (Homo sapiens, UniProt O60674)	6.16

Reading of pIC50 for C[C@H](Nc1nc(Nc2cc(C3CC3)[nH]n2)c(F)cc1C#N)c1ccc(F)cc1 with Tyrosine-protein kinase JAK2 (Homo sapiens, UniProt O60674): 8.52

---

- TARGET_OR_TEST_SYSTEM: High affinity nerve growth factor receptor (Homo sapiens, UniProt P04629)
- Sequence (P04629 whole entry): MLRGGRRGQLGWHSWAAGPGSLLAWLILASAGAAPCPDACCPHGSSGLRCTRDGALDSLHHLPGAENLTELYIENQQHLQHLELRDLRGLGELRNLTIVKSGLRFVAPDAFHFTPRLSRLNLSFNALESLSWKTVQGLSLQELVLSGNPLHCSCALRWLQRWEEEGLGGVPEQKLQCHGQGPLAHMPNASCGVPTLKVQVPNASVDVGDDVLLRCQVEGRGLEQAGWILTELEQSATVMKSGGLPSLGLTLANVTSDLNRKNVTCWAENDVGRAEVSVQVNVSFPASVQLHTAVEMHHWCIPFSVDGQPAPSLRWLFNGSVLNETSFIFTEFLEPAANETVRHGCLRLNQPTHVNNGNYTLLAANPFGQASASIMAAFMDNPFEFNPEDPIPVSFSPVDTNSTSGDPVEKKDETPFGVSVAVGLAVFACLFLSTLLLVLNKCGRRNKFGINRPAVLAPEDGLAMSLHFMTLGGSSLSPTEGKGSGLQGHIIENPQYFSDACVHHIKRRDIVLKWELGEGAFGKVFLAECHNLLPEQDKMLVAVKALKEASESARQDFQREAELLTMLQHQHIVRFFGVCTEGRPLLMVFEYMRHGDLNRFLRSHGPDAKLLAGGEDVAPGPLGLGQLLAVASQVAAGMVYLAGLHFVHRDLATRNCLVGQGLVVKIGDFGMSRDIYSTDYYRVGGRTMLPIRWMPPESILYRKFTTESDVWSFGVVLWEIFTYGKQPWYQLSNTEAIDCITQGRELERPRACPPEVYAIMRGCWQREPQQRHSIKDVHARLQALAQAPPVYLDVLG
- TEST_PROTOCOL: Inhibition of human TRKA
EXPERIMENTAL_READOUT: pIC50
Scale for pIC50: -log10 of concentration given in mol/L; no unit attached.

Reading of pIC50 for Cc1cc(Nc2nc(N[C@@H](C)c3ccc(F)cn3)c(C#N)cc2F)n[nH]1 with High affinity nerve growth factor receptor (Homo sapiens, UniProt P04629): 8.52

---

- TARGET_OR_TEST_SYSTEM: Tyrosine-protein kinase JAK3 (Homo sapiens, UniProt P52333)
- Sequence (P52333 whole entry): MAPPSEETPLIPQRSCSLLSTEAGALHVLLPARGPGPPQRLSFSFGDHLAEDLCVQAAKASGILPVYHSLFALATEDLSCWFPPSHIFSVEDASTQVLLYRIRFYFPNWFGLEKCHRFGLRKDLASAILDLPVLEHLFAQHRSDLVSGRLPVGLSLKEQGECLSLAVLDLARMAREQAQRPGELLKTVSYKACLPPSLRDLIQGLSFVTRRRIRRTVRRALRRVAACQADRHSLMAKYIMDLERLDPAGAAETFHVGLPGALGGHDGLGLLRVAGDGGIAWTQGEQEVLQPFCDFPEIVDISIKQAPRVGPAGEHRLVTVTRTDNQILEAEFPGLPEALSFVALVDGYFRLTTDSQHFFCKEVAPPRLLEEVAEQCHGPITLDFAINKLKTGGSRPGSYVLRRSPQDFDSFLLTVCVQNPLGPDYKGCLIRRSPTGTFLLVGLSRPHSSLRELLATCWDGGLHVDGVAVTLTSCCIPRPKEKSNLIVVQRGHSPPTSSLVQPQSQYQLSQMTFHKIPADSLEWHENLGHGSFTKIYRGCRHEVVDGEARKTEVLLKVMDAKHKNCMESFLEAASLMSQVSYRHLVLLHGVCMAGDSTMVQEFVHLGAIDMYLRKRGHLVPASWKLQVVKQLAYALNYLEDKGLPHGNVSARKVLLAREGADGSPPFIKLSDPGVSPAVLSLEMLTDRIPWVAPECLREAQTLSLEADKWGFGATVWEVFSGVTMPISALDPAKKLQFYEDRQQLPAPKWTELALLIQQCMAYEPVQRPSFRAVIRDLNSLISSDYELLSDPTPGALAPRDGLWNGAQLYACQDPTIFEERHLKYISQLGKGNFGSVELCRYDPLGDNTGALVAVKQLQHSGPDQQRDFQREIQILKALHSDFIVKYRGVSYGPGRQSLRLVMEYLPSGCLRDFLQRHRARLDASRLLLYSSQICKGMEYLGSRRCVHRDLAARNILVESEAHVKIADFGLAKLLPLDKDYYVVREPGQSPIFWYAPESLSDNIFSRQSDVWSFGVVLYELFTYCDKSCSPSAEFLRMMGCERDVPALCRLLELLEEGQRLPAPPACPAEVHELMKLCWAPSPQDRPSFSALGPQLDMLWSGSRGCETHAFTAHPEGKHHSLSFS
- TEST_PROTOCOL: Inhibition of JAK3 after 60 min
Under this convention, 1 denotes IC50 strictly below 0.2 µM and 0 denotes IC50 at or above 0.2 µM.

QUERY_SMILES	DISCRETE_LABEL
CC(C)Oc1cc(Nc2nc(N[C@@H](C)c3ccc(F)cc3)c(C#N)cc2F)n[nH]1	0
Cc1cc(Nc2nc(N[C@@H](C)c3ccc(F)cc3)c(C#N)cc2F)n[nH]1	1
Cc1cc(Nc2nc(N[C@@H](C)c3ccc(F)cn3)c(C#N)cc2Cl)n[nH]1	1
C[C@H](Nc1nc(Nc2cc(C3CC3)[nH]n2)c(F)cc1C#N)c1ccc(F)cc1	1

--- query ---
## Task Determine if Cc1cc(Nc2nc(N[C@@H](C)c3ccc(F)cn3)c(C#N)cc2F)n[nH]1 shows IC50 strictly lower than 0.2 µM.
## Result 1
